Data provenance is paper PMC12644462.

target_system: Topo II alpha (Homo sapiens, UniProt P11388)
Sequence (P11388 whole entry): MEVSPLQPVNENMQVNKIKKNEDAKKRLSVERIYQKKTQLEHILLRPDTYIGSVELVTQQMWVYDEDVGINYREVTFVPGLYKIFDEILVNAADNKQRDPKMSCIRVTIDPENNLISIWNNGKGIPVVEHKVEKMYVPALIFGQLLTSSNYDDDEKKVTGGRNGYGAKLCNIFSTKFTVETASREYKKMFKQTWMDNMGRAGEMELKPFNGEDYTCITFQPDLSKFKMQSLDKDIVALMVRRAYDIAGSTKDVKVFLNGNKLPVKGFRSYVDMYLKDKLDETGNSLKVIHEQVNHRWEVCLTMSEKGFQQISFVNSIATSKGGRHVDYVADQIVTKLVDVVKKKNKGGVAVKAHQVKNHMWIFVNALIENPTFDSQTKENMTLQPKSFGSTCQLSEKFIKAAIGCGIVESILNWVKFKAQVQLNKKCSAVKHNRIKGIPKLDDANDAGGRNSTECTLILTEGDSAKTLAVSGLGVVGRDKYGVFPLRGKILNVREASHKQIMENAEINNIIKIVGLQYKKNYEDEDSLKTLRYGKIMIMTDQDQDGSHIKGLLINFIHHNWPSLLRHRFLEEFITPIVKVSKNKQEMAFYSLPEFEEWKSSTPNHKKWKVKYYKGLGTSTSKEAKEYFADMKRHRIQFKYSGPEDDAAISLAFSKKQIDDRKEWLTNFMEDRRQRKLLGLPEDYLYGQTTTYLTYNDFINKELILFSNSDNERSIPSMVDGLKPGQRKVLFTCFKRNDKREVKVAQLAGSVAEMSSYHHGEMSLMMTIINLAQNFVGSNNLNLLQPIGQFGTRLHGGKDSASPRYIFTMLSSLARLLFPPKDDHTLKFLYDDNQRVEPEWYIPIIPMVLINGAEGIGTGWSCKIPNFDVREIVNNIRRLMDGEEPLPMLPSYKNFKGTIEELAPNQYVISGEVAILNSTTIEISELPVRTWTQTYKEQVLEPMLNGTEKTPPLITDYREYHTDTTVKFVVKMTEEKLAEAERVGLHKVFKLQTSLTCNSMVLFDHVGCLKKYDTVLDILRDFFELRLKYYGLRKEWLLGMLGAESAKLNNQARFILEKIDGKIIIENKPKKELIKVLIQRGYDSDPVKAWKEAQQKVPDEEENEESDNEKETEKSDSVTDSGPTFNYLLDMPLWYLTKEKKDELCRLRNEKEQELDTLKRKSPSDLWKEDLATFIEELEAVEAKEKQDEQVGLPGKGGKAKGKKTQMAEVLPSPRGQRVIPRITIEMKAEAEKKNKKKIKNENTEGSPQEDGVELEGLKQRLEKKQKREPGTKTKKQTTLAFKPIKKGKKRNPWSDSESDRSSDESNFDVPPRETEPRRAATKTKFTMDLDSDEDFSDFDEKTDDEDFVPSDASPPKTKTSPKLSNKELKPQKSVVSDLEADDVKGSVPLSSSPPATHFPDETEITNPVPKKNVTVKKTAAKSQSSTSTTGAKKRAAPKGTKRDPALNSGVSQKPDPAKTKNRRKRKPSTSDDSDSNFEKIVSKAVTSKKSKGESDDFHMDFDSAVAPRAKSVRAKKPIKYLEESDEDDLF
test_readout: IC50

{"structure_string": "CCCCCCCCCCCCCCCCCC(=O)OCCCO[C@H]1O[C@H](CS(=O)(=O)O)[C@@H](O)[C@H](O)[C@H]1O", "test_readout": "IC50", "result": "9 µM"}

----------
target_system: Topo I (Homo sapiens, UniProt P11387)
Sequence (P11387 1-765): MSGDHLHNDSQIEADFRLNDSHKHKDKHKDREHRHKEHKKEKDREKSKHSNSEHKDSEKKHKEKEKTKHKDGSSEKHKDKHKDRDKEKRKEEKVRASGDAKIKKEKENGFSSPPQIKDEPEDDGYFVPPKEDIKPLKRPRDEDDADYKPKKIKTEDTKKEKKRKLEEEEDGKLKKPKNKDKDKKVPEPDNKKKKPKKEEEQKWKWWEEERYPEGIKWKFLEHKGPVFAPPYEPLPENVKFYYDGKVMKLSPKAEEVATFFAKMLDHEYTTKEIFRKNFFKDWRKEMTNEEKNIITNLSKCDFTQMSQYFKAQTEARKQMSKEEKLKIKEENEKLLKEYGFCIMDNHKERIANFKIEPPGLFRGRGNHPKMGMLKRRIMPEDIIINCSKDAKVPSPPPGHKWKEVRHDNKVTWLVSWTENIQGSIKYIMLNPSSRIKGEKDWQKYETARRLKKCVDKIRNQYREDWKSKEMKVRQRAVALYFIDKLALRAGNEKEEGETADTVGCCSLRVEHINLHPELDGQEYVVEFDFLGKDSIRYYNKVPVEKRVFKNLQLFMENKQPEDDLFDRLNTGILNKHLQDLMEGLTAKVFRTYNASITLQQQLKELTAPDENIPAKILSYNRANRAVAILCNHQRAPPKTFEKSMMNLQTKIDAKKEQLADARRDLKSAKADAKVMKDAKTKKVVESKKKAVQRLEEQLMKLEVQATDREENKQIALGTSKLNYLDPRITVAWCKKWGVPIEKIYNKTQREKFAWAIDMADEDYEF
pIC50: −log10 of the molar value.

{"structure_string": "CCCCCCCCCCCCCCCCCC(=O)OCCCO[C@H]1O[C@H](CS(=O)(=O)O)[C@@H](O)[C@H](O)[C@H]1O", "pIC50": 4.60}
